Molecular target: T1, human Claudin 9 (human, UniProt O95484 1-217)
T1 construct: whole, on cells; also called CLDN9; CLND9
T1 sequence (looked up): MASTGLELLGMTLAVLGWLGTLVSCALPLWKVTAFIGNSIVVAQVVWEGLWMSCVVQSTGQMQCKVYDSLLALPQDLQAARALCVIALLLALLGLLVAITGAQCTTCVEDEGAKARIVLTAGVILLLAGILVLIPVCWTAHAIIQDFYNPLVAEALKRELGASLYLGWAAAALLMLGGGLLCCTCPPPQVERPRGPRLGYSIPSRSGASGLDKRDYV
Assay: flow cytometry, HEK293/H_CLDN9 cells, Ab titrated from 100 nM
# if measured Top MFI < 700: MET  # else: NOT MET

>  <BINDER>
97-C10E1-2-P1.z12 (antibody, V domains shown) VH: QVQLQQSGAEVKKPGASMKISCKASGYAFTGYTMNWVRQAPGQNLEWIGLSNPYNAGTIYNQKFKGRATLTVDKSTSTAYMELLSLRSEDTAVYYCARNYYYGSSYAYYYAMDYWGQGTTVTVSS VL: EAVVTQSPATLSVSPGERATLSCRSSTGAVTTSNYANWVQEKPGQAFRGLIGGTNNRAPGIPARFSGSLSGDEATLTISSLQSEDFAVYFCALWYSNHWVFGGGTKVEIK

>  <ASSIGNED_CLASS>
MET

$$$$
>  <BINDER>
97-C10E1-2-P1.z2 (antibody, V domains shown) VH: QVQLVQSGAEVKKPGASVKVSCKASGYAFTGYTMNWVRQAPGQGLEWIGLSNPYNAGTIYNQKFKGRVTMTVDKSTSTVYMELSSLRSEDTAVYYCARNYYYGSSYAYYYAMDYWGQGTTVTVSS VL: EAVVTQSPATLSVSPGERATLSCRSSTGAVTTSNYANWVQEKPGQAFRGLIGGTNNRAPGIPARFSGSLSGDEATLTISSLQSEDFAVYFCALWYSNHWVFGGGTKVEIK

>  <ASSIGNED_CLASS>
NOT MET

$$$$
>  <BINDER>
97-C10E1-2-P1.z5 (antibody, V domains shown, also called candidate antibody) VH: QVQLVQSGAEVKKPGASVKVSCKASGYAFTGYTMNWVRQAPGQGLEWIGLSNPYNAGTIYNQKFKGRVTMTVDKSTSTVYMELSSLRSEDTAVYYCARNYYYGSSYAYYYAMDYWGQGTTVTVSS VL: DIVVTQSPSSLSTSVGDRVTITCRSSTGAVTTSNYANWVQEKPGKAFKGLIGGTNNRAPGVPARFSGSLSGDDAALTISSAQPEDFATYFCALWYSNHWVFGGGTKVEIK

>  <ASSIGNED_CLASS>
NOT MET

$$$$
>  <BINDER>
97-C10E1-2-P1.z10 (antibody, V domains shown) VH: QVQLQQSGAEVKKPGASVKVSCKASGYAFTGYTMNWVRQAPGQNLEWIGLSNPYNAGTIYNQKFKGRVTLTVDKSTSTVYMELLSLRSEDTAVYYCARNYYYGSSYAYYYAMDYWGQGTTVTVSS VL: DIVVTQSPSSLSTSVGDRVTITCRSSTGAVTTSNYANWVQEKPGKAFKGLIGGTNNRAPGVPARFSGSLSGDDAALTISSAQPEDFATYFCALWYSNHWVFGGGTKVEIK

>  <ASSIGNED_CLASS>
MET

$$$$
>  <BINDER>
97-C10E1-2-P1.z14 (antibody, V domains shown) VH: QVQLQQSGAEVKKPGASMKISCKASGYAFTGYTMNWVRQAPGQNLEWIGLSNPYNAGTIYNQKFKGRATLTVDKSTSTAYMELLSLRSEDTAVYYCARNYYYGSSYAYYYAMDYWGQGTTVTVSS VL: DAQMTQSPSSLSASVGDRVTITCRSSTGAVTTSNYANWVQQKPGKAFKGLIGGTNNRAPGVPARFSGSLSGTDAALTISSLQPEDFATYFCALWYSNHWVFGGGTKVEIK

>  <ASSIGNED_CLASS>
MET

$$$$
